target: DPP-IV (Homo sapiens, UniProt P27487); experiment: Assay for resistance to dipeptidyl peptidase IV (RP-HPLC of cleavage product); details: human, isolated human placental DPP-IV (dipeptidyl peptidase IV), pH 7.4, % Cleaved by DPP-IV, as Example 3: human placental DPP-IV, 37° C., PBS pH 7.4
Sequence (P27487 whole entry): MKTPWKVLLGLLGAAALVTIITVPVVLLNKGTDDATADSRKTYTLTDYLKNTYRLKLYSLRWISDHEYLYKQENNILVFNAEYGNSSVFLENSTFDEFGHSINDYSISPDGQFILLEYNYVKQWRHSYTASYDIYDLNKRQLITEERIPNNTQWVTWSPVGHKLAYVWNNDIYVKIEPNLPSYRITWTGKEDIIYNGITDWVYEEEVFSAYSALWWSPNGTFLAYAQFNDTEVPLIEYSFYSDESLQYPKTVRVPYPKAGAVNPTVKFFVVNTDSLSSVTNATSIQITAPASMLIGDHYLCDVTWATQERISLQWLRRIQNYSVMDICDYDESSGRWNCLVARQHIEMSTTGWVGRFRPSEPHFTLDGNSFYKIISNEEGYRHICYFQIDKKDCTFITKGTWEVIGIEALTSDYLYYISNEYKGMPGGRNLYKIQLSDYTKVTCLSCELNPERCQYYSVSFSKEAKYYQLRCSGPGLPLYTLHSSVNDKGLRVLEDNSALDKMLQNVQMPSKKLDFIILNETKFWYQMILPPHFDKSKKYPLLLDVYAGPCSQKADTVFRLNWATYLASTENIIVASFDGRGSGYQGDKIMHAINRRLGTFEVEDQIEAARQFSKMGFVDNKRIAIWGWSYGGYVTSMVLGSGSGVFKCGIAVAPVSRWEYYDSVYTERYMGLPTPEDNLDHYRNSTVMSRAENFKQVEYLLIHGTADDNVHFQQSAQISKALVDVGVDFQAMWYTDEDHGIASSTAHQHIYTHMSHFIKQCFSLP
Value kind: metabolised at 24 h, 0.19 mg/ml (%)

# annotated cases, reported metabolised at 24 h, 0.19 mg/ml shown
substance="H-HQDGSFSDEMNTILDNLAARDFINWLIQTKITD-OH [[Gln2]hGLP-2(1-33)]" readout_number=0
substance="H-HMDGSFSDEMNTILDNLAARDFINWLIQTKITD-OH [[Met2]hGLP-2(1-33)]" readout_number=0
substance="H-HDDGSFSDEMNTILDNLAARDFINWLIQTKITD-OH [[Asp2]hGLP-2(1-33)]" readout_number=0

A = H-HADGAFADEMNTILDNLAARDFINWLIQTKITD-OH [[Ala5, Ala7]hGLP-2(1-33)]
B = H-HTDGSFSDEMNTILDNLAARDFINWLIQTKITD-OH [[Thr2]hGLP-2(1-33)]
Hi, I'm comparing two records. Which one has the lower metabolised at 24 h, 0.19 mg/ml, A or B ? API: response body contains the label of the selected item. B

---

Reported values of % Activity (small bowel inducing activity relative to native rat GLP-2(1-33) = 100%) for individual entries
tested on: CD1 mice; test: Intestinotrophic activity assessment: small bowel weight in mice; type: in vivo; conditions: mice, as Example 4; relative to native rat GLP-2(1-33)
Numeric only. Scale: %

# annotated cases, reported % Activity (small bowel inducing activity relative to native rat GLP-2(1-33) = 100%) shown
substance="H-HTDGSFSDEMNTILDNLAARDFINWLIQTKITD-OH [[Thr2]hGLP-2(1-33)]" test_system="CD1 mice" readout_number=117
substance="H-DADGSFSDEMNTILDNLAARDFINWLIQTKITD-OH [[Asp1]hGLP-2(1-33)]" test_system="CD1 mice" readout_number=60
substance="H-HGDGSFSDEMNTALDNLAARDFINWLIQTKITD-OH [[Gly2,Ala13]hGLP-2(1-33)]" test_system="CD1 mice" readout_number=67

Requested read-out: % Activity (small bowel inducing activity relative to native rat GLP-2(1-33) = 100%). Entry: H-HGDGSFSAEMNTILDNLAARDFINWLIQTKITD-OH [[Gly2,Ala8]hGLP-2(1-33)] 120

Requested read-out: % Activity (small bowel inducing activity relative to native rat GLP-2(1-33) = 100%). Entry: H-HADGSFSDEMNTILDNLATRDFINWLIQTKITD-NH2 [ratGLP-2(1-33)amide] 56

Requested read-out: % Activity (small bowel inducing activity relative to native rat GLP-2(1-33) = 100%). Entry: H-HGDGSFSDEMNTIADNLAARDFINWLIQTKITD-OH [[Gly2,Ala14]hGLP-2(1-33)] 30

---

tested on: dipeptidyl peptidase IV (DPP-IV); test: human placental DPP-IV (Calbiochem), 0.125 mU, added to test peptide in PBS at pH 7.4; conditions: 37° C., up to 24 hours
Value kind: not cleaved (% cleaved by DPP-IV)

substance="[Gly2,Ala5]hGLP-2(1-33) (H-HGDGAFSDEMNTILDNLAARDFINWLIQTKITD-OH)" readout_number=0
substance="[Ser2]hGLP-2(1-33) (H-HSDGSFSDEMNTILDNLAARDFINWLIQTKITD-OH)" readout_number=0
substance="[Pro1]hGLP-2(1-33) (H-PADGSFSDEMNTILDNLAARDFINWLIQTKITD-OH)" readout_number=0
substance="[Gly2,Ala4]hGLP-2(1-33) (H-HGDASFSDEMNTILDNLAARDFINWLIQTKITD-OH)" readout_number=0
substance="[Thr2]hGLP-2(1-33) (H-HTDGSFSDEMNTILDNLAARDFINWLIQTKITD-OH)" readout_number=0
substance="[Met2]hGLP-2(1-33) (H-HMDGSFSDEMNTILDNLAARDFINWLIQTKITD-OH)" readout_number=0
substance="[Tyr2]hGLP-2(1-33) (H-HYDGSFSDEMNTILDNLAARDFINWLIQTKITD-OH)" readout_number=0
substance="[Lys2]hGLP-2(1-33) (H-HKDGSFSDEMNTILDNLAARDFINWLIQTKITD-OH)" readout_number=0
substance="Ac-ratGLP-2(1-33) (Ac-HADGSFSDEMNTILDNLATRDFINWLIQTKITD-OH)" readout_number=0
substance="[Phe2]hGLP-2(1-33) (H-HFDGSFSDEMNTILDNLAARDFINWLIQTKITD-OH)" readout_number=0
substance="[Asp1]hGLP-2(1-33) (H-DADGSFSDEMNTILDNLAARDFINWLIQTKITD-OH)" readout_number=0
substance="[Asn2]hGLP-2(1-33) (H-HNDGSFSDEMNTILDNLAARDFINWLIQTKITD-OH)" readout_number=0
substance="[Pro3]hGLP-2(1-33) (H-HAPGSFSDEMNTILDNLAARDFINWLIQTKITD-OH)" readout_number=0
substance="[Ala1,Gly2]hGLP-2(1-33) (H-AGDGSFSDEMNTILDNLAARDFINWLIQTKITD-OH)" readout_number=0
substance="[Ile2]hGLP-2(1-33) (H-HIDGSFSDEMNTILDNLAARDFINWLIQTKITD-OH)" readout_number=0
substance="[Glu2]hGLP-2(1-33) (H-HEDGSFSDEMNTILDNLAARDFINWLIQTKITD-OH)" readout_number=0
substance="[His2]hGLP-2(1-33) (H-HHDGSFSDEMNTILDNLAARDFINWLIQTKITD-OH)" readout_number=0
substance="[Tyr1, Gly2]hGLP-2(1-33) (H-YGDGSFSDEMNTILDNLAARDFINWLIQTKITD-OH)" readout_number=0
